Values were extracted from patent US20250333496A1.

- SYSTEM_UNDER_TEST: T1, recombinant human HPC4-tagged IL-6 (human, UniProt P05231 30-212)
- T1 construct: captured on an anti-HPC4 antibody in SPR; also called HPC4-human IL6
- ASSAY_TEXT: SPR, HPC4-IL-6 captured on anti-HPC4 antibody, VHH injected, 25 C, 1:1 model
READOUT_TYPE: pKd
FYI, pKd means -log10 of a concentration in mol per litre.

The cases that follow already have their pKd on record.
- BINDER: "Polypeptide_27 (VHH, VHH_1.4 with C-terminal His tag extension E1; also called [VHH_1.4]-E1) VHH: EVQLVESGGGLVQPGGSLQLSCTTSGRKFDEYAVGWFRQAPGKEREFVADIGENAENTWYAHSVLGRFTISRDDAKNTVYLQMDSLKPEDTAVYYCAADKYGVGGNAQGYYDSWGQGTQVTVSS"
  pKd: 11.12
- BINDER: "Polypeptide_24 (VHH, VHH_1.3 with C-terminal His tag extension E1; also called [VHH_1.3]-E1) VHH: EVQLVESGGGLVQPGGSLQLSCTTSGRRFSEYAVGWFRQGPGKEREFVADIGEQAENTWYAHSVLGRFTISRDDAKNTVYLQMDSLKPEDTAVYYCAADKYGVGGNAQGYYDSWGQGTQVTVSS"
  pKd: 11.49
- BINDER: "Compound 12 (VHH, Chem. 24 (C16 diacid substituent) on Cys in position 4 and on Cys in position 6 of the extension (SEQ ID NO: 72), Polypeptide derivative; extension E2 at the C-terminus of the VHH; also called VHH_1.17-E2 with 2x Chem. 24) VHH: EVQLVESGGGLVQPGGSLQLSCAASGFTFSNYWMYWVRQAPGQGLEWVSGINTGGSTPDYADSVKGRFAISRDNAKNTLYLQMDSLRPEDTAVYYCAADTPRVFRLDHYSPLGQGTQVTVSS"
  pKd: 10.27
- BINDER: "Polypeptide_29 (VHH, VHH_1.6 with C-terminal His tag extension E1; also called [VHH_1.6]-E1) VHH: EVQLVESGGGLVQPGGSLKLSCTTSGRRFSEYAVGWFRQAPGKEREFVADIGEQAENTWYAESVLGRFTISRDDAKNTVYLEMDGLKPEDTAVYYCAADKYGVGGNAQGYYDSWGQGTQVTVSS"
  pKd: 11.41
- BINDER: "Compound 2 (VHH, Chem. 24 (C16 diacid substituent) on Cys in position 4 and on Cys in position 6 of the extension (SEQ ID NO: 72), Polypeptide derivative; extension E2 at the C-terminus of the VHH; also called VHH_1.13-E2 with 2x Chem. 24) VHH: EVQLVESGGGLVQAGGSLQLSCTASGGTFSEYAMAWFRQAPGQEREFVTDIGESGGTWYADSVKGRFTISRDNAKNTVYLQMDSLRPEDTAVYYCAADSYGVGGGAERYYDSWGQGTQVTVSS"
  pKd: 10.28
- BINDER: "Polypeptide_22 (VHH, VHH_1.2 with C-terminal His tag extension E1; also called [VHH_1.2]-E1) VHH: EVQLVESGGGLVQPGGSLKLSCTTSGRRFSEYAVGWFRQGPGKEREFVADIGEQAENTWYAESVLGRFTISRDDAKNTVYLQMDSLKPEDTAVYYCAADKYGVGGNAQGYYDSWGQGTQVTVSS"
  pKd: 11.14
- BINDER: "Polypeptide_28 (VHH, VHH_1.5 with C-terminal His tag extension E1; also called [VHH_1.5]-E1) VHH: EVQLVESGGGLVQPGGSLQLSCTTSGRKFDEYAVGWFRQGPGKEREFVADIGENAENTWYAESVLGRFTISRDDAKNTVYLQMDSLKPEDTAVYYCAADKYGVGGNAQGYYDSWGQGTQVTVSS"
  pKd: 11.29
- BINDER: "Polypeptide_31 (VHH, VHH_1.7 with C-terminal His tag extension E1; also called [VHH_1.7]-E1) VHH: EVQLVESGGGLVQPGGSLQLSCTTSGRKFDEYAVGWFRQGPGQEREFVADIGENAENTWYAESVLGRFTISRDDAKNTVYLEMDGLKPEDTAVYYCAADKYGVGGNAQGYYDSWGQGTQVTVSS"
  pKd: 10.76

pKd reported for this binder Polypeptide_34 (VHH, VHH_1.8 with C-terminal His tag extension E1; also called [VHH_1.8]-E1) VHH: EVQLVESGGGLVQAGGSLRLSCTASGGTFSEYAMAWFRQAPGKEREFVTDIGESGGTWYADSVKGRFTISRDNAKNTVYLQMNSLRPEDTAVYYCAADSYGVGGGAERYYDSWGQGTQVTVSS : 10.87
